Values were extracted from ChEMBL document CHEMBL1131127.

target: Chymotrypsinogen A (Bos taurus, UniProt P00766); experiment: The compound was tested for inhibition of Chymotrypsinogen with a pre-incubation time of 15 min.
pIC50: −log10 of the molar value.
observable: pIC50

# molecular-string, measured-value
records = [
    ("C=CC[C@H]1C(=O)N[C@H]2CCN(C(=O)OCc3ccccc3)[C@@H]21", "< 4.00"),
]

---

Molecular target: Neutrophil elastase (Homo sapiens)
Sequence (P08246 whole entry): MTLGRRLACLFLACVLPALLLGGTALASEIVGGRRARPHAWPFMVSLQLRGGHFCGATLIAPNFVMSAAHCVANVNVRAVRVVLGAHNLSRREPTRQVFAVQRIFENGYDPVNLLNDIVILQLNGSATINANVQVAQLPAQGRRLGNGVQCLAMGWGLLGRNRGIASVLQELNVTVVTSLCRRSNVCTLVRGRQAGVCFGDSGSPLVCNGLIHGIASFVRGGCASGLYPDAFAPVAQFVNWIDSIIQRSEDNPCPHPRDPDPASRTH
Experiment: The compound was tested for inhibition of human neutrophil elastase enzyme with a pre-incubation time of 15 min.
pIC50: −log10 of the molar value.
observable: pIC50

# compound, measured-value
data = [
    ("C=CC[C@H]1C(=O)O[C@H]2CCN(C(=O)OCC)C21 (stereo partly specified)", 7.16),
]

---

molecular target: Neutrophil elastase (Homo sapiens); assay: The compound was tested for inhibition of human neutrophil elastase enzyme with a pre-incubation time of 40 min.

# compound, rel, IC50 [nM]
records = [
    ("C=CC[C@H]1C(=O)N(S(=O)(=O)c2cccc3ccccc23)[C@H]2CCN(C(=O)OCc3ccccc3)C12 (stereo partly specified)", "=", 88),
    ("C=CC[C@@H]1C(=O)O[C@H]2CCN(C(=O)OCc3ccccc3)C21 (stereo partly specified)", "=", 74),
    ("C=CC[C@H]1C(=O)O[C@H]2CCN(C(=O)OCc3ccccc3)C21 (stereo partly specified)", "=", 47),
    ("CCC[C@@H](NC(=O)N1C(=O)C(CC)(CC)[C@@H]1Oc1ccc(C(=O)N2CCN(C)CC2)cc1)c1ccc2c(c1)OCO2", "=", 36),
    ("C=CC[C@H]1C(=O)N(S(C)(=O)=O)[C@H]2CCN(C(=O)OCc3ccccc3)[C@H]12", "=", 56),
    ("C=CC[C@H]1C(=O)N[C@H]2CCN(C(=O)OCc3ccccc3)[C@@H]21", ">", 500000),
]

---

Target: Neutrophil elastase (Homo sapiens)
Sequence (P08246 whole entry): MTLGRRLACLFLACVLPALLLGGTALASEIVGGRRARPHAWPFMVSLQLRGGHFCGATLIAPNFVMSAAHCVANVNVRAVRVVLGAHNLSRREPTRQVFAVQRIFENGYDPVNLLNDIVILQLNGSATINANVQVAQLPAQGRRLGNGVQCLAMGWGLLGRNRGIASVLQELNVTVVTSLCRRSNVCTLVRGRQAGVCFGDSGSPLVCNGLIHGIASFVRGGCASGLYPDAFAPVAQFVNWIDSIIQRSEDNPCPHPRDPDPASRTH
Assay: The compound was tested for inhibition of human neutrophil elastase enzyme with a pre-incubation time of 0 min.
pIC50: −log10 of the molar value.
Some molecules, each annotated with its measured pIC50.

# molecule, experimental-target, rel, pIC50
measured = [
    ("CCC[C@@H](NC(=O)N1C(=O)C(CC)(CC)[C@@H]1Oc1ccc(C(=O)N2CCN(C)CC2)cc1)c1ccc2c(c1)OCO2", "Neutrophil elastase (Homo sapiens)", "=", 7.64),
    ("C=CC[C@@H]1C(=O)O[C@H]2CCN(C(=O)OCc3ccccc3)C21 (stereo partly specified)", "Neutrophil elastase (Homo sapiens)", "=", 4.89),
    ("C=CC[C@H]1C(=O)N[C@H]2CCN(C(=O)OCc3ccccc3)[C@@H]21", "Neutrophil elastase (Homo sapiens)", "<", 3.30),
    ("C=CC[C@H]1C(=O)O[C@H]2CCN(C(=O)OCc3ccccc3)C21 (stereo partly specified)", "Neutrophil elastase (Homo sapiens)", "=", 6.47),
    ("C=CC[C@H]1C(=O)N(S(=O)(=O)c2cccc3ccccc23)[C@H]2CCN(C(=O)OCc3ccccc3)C12 (stereo partly specified)", "Neutrophil elastase (Homo sapiens)", "<", 4.00),
    ("C=CC[C@H]1C(=O)N(S(C)(=O)=O)[C@H]2CCN(C(=O)OCc3ccccc3)[C@H]12", "Neutrophil elastase (Homo sapiens)", "=", 6.43),
]
